- protocol text: Determination of aqueous (kinetic) solubility
- Type: physicochemical
- assay context: aqueous buffer, kinetic from dmso stock, buffer pH 7.4
measurement type: solubility

[
  {
    "molecule": "O=C(Cc1ccc(C(F)(F)F)c(F)c1)Nc1c(Cl)ccc2c(=O)n(CCO)ccc12 [Compound 383]",
    "measurement type": "solubility",
    "reported result": "< 25 µM"
  },
  {
    "molecule": "C[C@H](CO)n1ccc2c(NC(=O)[C@H](C)c3ccc(Cl)c(Cl)c3)cccc2c1=O [Compound 320]",
    "measurement type": "solubility",
    "reported result": "51 to 75 µM"
  },
  {
    "molecule": "CC(C)[C@H](C(N)=O)n1ccc2c(NC(=O)[C@@H](C)c3ccc(Cl)cc3)cccc2c1=O [Compound 283]",
    "measurement type": "solubility",
    "reported result": "> 75 µM"
  },
  {
    "molecule": "Cc1ccc2c(=O)n([C@H](C)CO)ccc2c1NC(=O)Cc1ccc(F)c(C(F)(F)F)c1 [Compound 394]",
    "measurement type": "solubility",
    "reported result": "> 75 µM"
  },
  {
    "molecule": "CC(C(=O)Nc1cccc2c(=O)n([C@H](C)C(N)=O)ccc12)c1cccc(C(F)(F)F)c1F (stereo partly shown) [Compound 337]",
    "measurement type": "solubility",
    "reported result": "< 25 µM"
  },
  {
    "molecule": "C[C@H](CO)n1ccc2c(NC(=O)Cc3ccc(C(F)(F)F)cc3F)cccc2c1=O [Compound 359]",
    "measurement type": "solubility",
    "reported result": "< 25 µM"
  },
  {
    "molecule": "O=C(Cc1ccc(Cl)c(Cl)c1)Nc1cccc2c(=O)n(C(CO)CO)ccc12 [Compound 80]",
    "measurement type": "solubility",
    "reported result": "> 75 µM"
  },
  {
    "molecule": "O=C(Cc1ccc(Cl)c(C(F)(F)F)c1)Nc1cccc2c(=O)n(C(CO)CO)ccc12 [Compound 81]",
    "measurement type": "solubility",
    "reported result": "> 75 µM"
  },
  {
    "molecule": "CC(C(=O)Nc1cccc2c(=O)n([C@H](C)C(N)=O)ccc12)c1ccc(Cl)c(C(F)(F)F)c1 (stereo partly shown) [Compound 267]",
    "measurement type": "solubility",
    "reported result": "51 to 75 µM"
  },
  {
    "molecule": "C[C@H](CO)n1ccc2c(NC(=O)Cc3ccc(Cl)c(Cl)c3)cccc2c1=O [Compound 333]",
    "measurement type": "solubility",
    "reported result": "> 75 µM"
  },
  {
    "molecule": "O=C(CCc1cc(C(F)(F)F)ccc1C(F)(F)F)Nc1cccc2c(=O)n(CCO)ccc12 [Compound 62]",
    "measurement type": "solubility",
    "reported result": "< 25 µM"
  },
  {
    "molecule": "C[C@H](C(=O)Nc1cccc2c(=O)n([C@H](C)C(N)=O)ccc12)c1ccc(Cl)cc1 [Compound 263]",
    "measurement type": "solubility",
    "reported result": "> 75 µM"
  },
  {
    "molecule": "C[C@H](C(N)=O)n1ccc2c(NC(=O)Cc3ccc(Cl)c(F)c3)cccc2c1=O [Compound 300]",
    "measurement type": "solubility",
    "reported result": "< 25 µM"
  }
]

###

- assayed target: P2X7 receptor (Homo sapiens)
- Construct: host or cells: THP-1 cells differentiated with LPS and IFN-γ
- protocol text: IL-1β release assay in differentiated THP-1 cells stimulated with BzATP (Example 9)
- Type: cell-based
- assay context: 0.3 μM compound; differentiated THP-1 cells, BzATP 250 uM; "+" symbols; read-out: IL-1β % Inhib. @ 0.3 or 0.1 uM
Listing of entries alongside the reported inhibition at 0.3 µM.
measurement type: inhibition at 0.3 µM

[
  {
    "smiles entry": "O=C(Cc1ccc(Cl)cc1C(F)(F)F)Nc1cccc2c(=O)n(CCO)ccc12",
    "measurement type": "inhibition at 0.3 µM",
    "reported result": "51 to 75%"
  },
  {
    "smiles entry": "C[C@H](C(N)=O)n1ccc2c(NC(=O)Cc3ccc(Cl)cc3F)c(Cl)ccc2c1=O",
    "measurement type": "inhibition at 0.3 µM",
    "reported result": "26 to 50%"
  },
  {
    "smiles entry": "C[C@H](C(N)=O)n1ccc2c(NC(=O)[C@H](C)c3ccc(Cl)cc3)cccc2c1=O",
    "measurement type": "inhibition at 0.3 µM",
    "reported result": "> 76%"
  },
  {
    "smiles entry": "CC(C)C[C@H](CO)n1ccc2c(NC(=O)[C@@H](C)c3ccc(Cl)cc3)cccc2c1=O",
    "measurement type": "inhibition at 0.3 µM",
    "reported result": "> 76%"
  }
]

###

Listing of entries alongside the reported half-life at 1 μM.
- protocol text: Half-life in human liver microsomes (HLM)
- assay context: pH 7.4

[
  {
    "molecule": "CC(C(=O)Nc1cccc2c(=O)n([C@H](C)C(N)=O)ccc12)c1ccc(Cl)c(Cl)c1 (stereo partly shown)",
    "half-life at 1 μM (h)": 1.46
  },
  {
    "molecule": "NC(=O)[C@H](CO)n1ccc2c(NC(=O)Cc3ccc(Cl)c(C(F)(F)F)c3)cccc2c1=O",
    "half-life at 1 μM (h)": 0.9
  },
  {
    "molecule": "C[C@@H](C(N)=O)n1ccc2c(NC(=O)Cc3ccc(C(F)(F)F)cc3)cccc2c1=O",
    "half-life at 1 μM (h)": 2.36
  },
  {
    "molecule": "C[C@H](CO)n1ccc2c(NC(=O)Cc3ccc(C(F)(F)F)cc3)c(Cl)ccc2c1=O",
    "half-life at 1 μM (h)": 3.15
  }
]

###

Listing of entries alongside the reported inhibition at 0.3 µM.
- assayed target: P2X7 receptor (Homo sapiens, UniProt Q99572)
- Construct: host or cells: THP-1 cells differentiated with LPS and IFN-γ
- Sequence (Q99572 whole entry): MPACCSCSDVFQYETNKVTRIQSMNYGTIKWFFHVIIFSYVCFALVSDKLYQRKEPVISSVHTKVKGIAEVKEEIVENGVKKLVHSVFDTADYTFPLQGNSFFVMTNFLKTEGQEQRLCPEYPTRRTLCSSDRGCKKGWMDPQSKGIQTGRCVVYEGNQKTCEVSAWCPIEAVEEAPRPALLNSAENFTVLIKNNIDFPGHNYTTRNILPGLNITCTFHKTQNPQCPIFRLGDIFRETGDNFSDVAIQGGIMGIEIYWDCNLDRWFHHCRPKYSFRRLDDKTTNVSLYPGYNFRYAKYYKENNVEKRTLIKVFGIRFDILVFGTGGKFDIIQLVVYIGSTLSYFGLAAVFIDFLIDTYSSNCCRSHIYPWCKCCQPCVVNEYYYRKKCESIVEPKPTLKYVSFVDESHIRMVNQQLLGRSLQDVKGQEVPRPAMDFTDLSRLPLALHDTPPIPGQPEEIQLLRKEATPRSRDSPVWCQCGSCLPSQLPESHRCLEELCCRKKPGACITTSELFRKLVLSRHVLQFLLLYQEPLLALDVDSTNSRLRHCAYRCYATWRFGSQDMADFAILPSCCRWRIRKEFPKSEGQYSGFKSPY
- protocol text: IL-1β release assay in differentiated THP-1 cells stimulated with BzATP (Example 9)
- Assay type: cell-based
- assay context: 0.3 μM compound; differentiated THP-1 cells, BzATP 250 uM; "+" symbols; read-out: IL-1β % Inhib. @ 0.3 or 0.1 uM
measurement type: inhibition at 0.3 µM

[
  {
    "compound": "CC(C)[C@H](C(N)=O)n1ccc2c(NC(=O)[C@H](C)c3ccc(Cl)cc3)cccc2c1=O",
    "reported result": "> 76%"
  },
  {
    "compound": "CC(C)(CO)n1ccc2c(NC(=O)Cc3ccc(Cl)c(Cl)c3)cccc2c1=O",
    "reported result": "51 to 75%"
  },
  {
    "compound": "C[C@H](C(=O)Nc1cccc2c(=O)n([C@H](C)C(=O)NC3CC3)ccc12)c1ccc(Cl)cc1",
    "reported result": "51 to 75%"
  },
  {
    "compound": "CC(C(=O)Nc1cccc2c(=O)n([C@H](C)C(N)=O)ccc12)c1ccc(Cl)c(Cl)c1 (stereo partly shown)",
    "reported result": "> 76%"
  }
]

###

- assayed target: P2X7 receptor (Homo sapiens)
- Construct: host or cells: THP-1 cells differentiated with LPS and IFN-γ
- protocol text: IL-1β release assay in differentiated THP-1 cells stimulated with BzATP (Example 9)
- Assay type: cell-based
- assay context: 0.3 μM compound; differentiated THP-1 cells, BzATP 250 uM; "+" symbols; read-out: IL-1β % Inhib. @ 0.3 or 0.1 uM
measurement type: inhibition at 0.3 µM

[
  {
    "molecule": "C[C@H](CO)n1ccc2c(NC(=O)Cc3ccc(Cl)c(Cl)c3)cccc2c1=O",
    "reported result": "> 76%"
  },
  {
    "molecule": "C[C@@H](C(N)=O)n1ccc2c(NC(=O)Cc3ccc(F)c(C(F)(F)F)c3)cccc2c1=O",
    "reported result": "> 76%"
  },
  {
    "molecule": "C[C@@H](CO)n1ccc2c(NC(=O)Cc3ccc(C(F)(F)F)cc3)cccc2c1=O",
    "reported result": "51 to 75%"
  },
  {
    "molecule": "C[C@@H](C(N)=O)n1ccc2c(NC(=O)Cc3ccc(Cl)c(Cl)c3)cccc2c1=O",
    "reported result": "> 76%"
  },
  {
    "molecule": "C[C@@H](C(N)=O)n1ccc2c(NC(=O)Cc3ccc(Cl)c(F)c3)cccc2c1=O",
    "reported result": "> 76%"
  },
  {
    "molecule": "C[C@@H](CO)n1ccc2c(NC(=O)Cc3ccc(Cl)c(F)c3)cccc2c1=O",
    "reported result": "51 to 75%"
  },
  {
    "molecule": "CNC(=O)[C@@H](C(C)C)n1ccc2c(NC(=O)[C@@H](C)c3ccc(Cl)cc3)cccc2c1=O",
    "reported result": "> 76%"
  },
  {
    "molecule": "C[C@H](C(N)=O)n1ccc2c(NC(=O)Cc3ccc(F)cc3F)cccc2c1=O",
    "reported result": "> 76%"
  },
  {
    "molecule": "C[C@H](C(N)=O)n1ccc2c(NC(=O)Cc3ccc(F)c(F)c3F)cccc2c1=O",
    "reported result": "> 76%"
  },
  {
    "molecule": "C[C@H](CO)n1ccc2c(NC(=O)Cc3ccc(F)c(C(F)(F)F)c3)cccc2c1=O",
    "reported result": "> 76%"
  },
  {
    "molecule": "C[C@H](C(N)=O)n1ccc2c(NC(=O)Cc3c(F)cccc3C(F)(F)F)cccc2c1=O",
    "reported result": "26 to 50%"
  },
  {
    "molecule": "NCC(CCl)Cn1ccc2c(NC(=O)Cc3ccc(Cl)c(Cl)c3)cccc2c1=O (stereo not shown)",
    "reported result": "51 to 75%"
  },
  {
    "molecule": "C[C@H](C(N)=O)n1ccc2c(NC(=O)Cc3c(F)cccc3F)cccc2c1=O",
    "reported result": "0 to 25%"
  },
  {
    "molecule": "CC(C)[C@H](C(=O)NC1CC1)n1ccc2c(NC(=O)[C@@H](C)c3ccc(Cl)cc3)cccc2c1=O",
    "reported result": "> 76%"
  },
  {
    "molecule": "C[C@H](C(N)=O)n1ccc2c(NC(=O)Cc3ccc(C#N)cc3)cccc2c1=O",
    "reported result": "26 to 50%"
  },
  {
    "molecule": "O=C(Cc1ccc(Cl)c(C(F)(F)F)c1)Nc1cccc2c(=O)n(C[C@@H]3CCCN3)ccc12",
    "reported result": "> 76%"
  }
]
